Tested on: P93_24
Assay: qHTS profiling for inhibitors of Plasmodium falciparum proliferation (AID 504749); further: nearly all actives have a fitted effect of over 60% in size; further: potency means the concentration at half of the fitted maximal effect
Conditions: P. falciparum in erythrocytes, SYBR Green DNA, 72 h; series mostly up to 28.7 µM
Method: NIH National Institute of Allergy and Infectious Diseases [NIAID] NIH Chemical Genomics Center [NCGC] […] Because mature erythrocytes lack DNA, only Plasmodium-derived DNA is detected. NCGC Assay Protocol Summary: The SYBR Green viability assay was adapted from a method described previously (Plouffe et al., 2008). […] The following morning, fluorescence intensity at 485(14) nm excitation and 535(25) nm emission wavelengths was measured on an EnVision (Perkin Elmer) plate reader. […]
Records with an inconclusive call do not appear. The source made the active and inactive calls. The call rests on the fitted dose curve; in most records, active means well fitted inhibition curve with a large enough effect; inconclusive means small, poorly fitted or top-dose-only effect; inactive means flat fitted curve, though single readings scatter.
PROPERTY LABEL: Potency

Reference set (5 entries):
| MOLECULE | TEST TARGET | PROPERTY LABEL | ENDPOINT VALUE |
| --- | --- | --- | --- |
| OC(c1ccccc1)(c1ccccc1)C1CN2CCC1CC2 (configuration not stated) | P93_24 | Potency | inactive |
| CC[N+](C)(CC)CCOC(=O)C(O)(c1ccccc1)c1ccccc1 | P93_24 | Potency | inactive |
| CCN(CC)C(=O)/C(Cl)=C(\C)OP(=O)(OC)OC | P93_24 | Potency | inactive |
| C[C@]12CCC(=O)C[C@@H]1CC[C@@H]1[C@@H]2CC[C@]2(C)[C@@H](O)CC[C@@H]12 | P93_24 | Potency | inactive |
| CCC1(C)CC(=O)NC(=O)C1 | P93_24 | Potency | inactive |

[ask] Sample Clc1ccc(Cl)cc1 — what was its Potency?
[reply] inactive

[ask] I am curious: what Potency value has been reported for O=C(CS(=O)C(c1ccccc1)c1ccccc1)NO (configuration not stated) ?
[reply] inactive

[ask] # lookup: Potency of COC([CH2][Hg])CNC(=O)c1ccccc1OCC(=O)O (configuration not stated)
[reply] inactive

---

Tested on: P93_24
Assay: qHTS profiling for inhibitors of Plasmodium falciparum proliferation (AID 504749); further: nearly all actives have a fitted effect of over 60% in size
Settings: P. falciparum in erythrocytes, SYBR Green DNA, 72 h; series mostly up to 28.7 µM
Inconclusive results are not listed. The source made the active and inactive calls. Calls come from the whole dose curve; as a rule, active = well fitted inhibition curve with a large enough effect; inconclusive = small, poorly fitted or top-dose-only effect; inactive = flat fitted curve, though single readings scatter.
Assign a class; possible classes are active, inactive

| COMPOUND | QUALITATIVE LABEL |
| --- | --- |
| Oc1cc(Cl)c(Cl)cc1Cl | inactive |
| O=C1CN=C(c2ccccc2)c2cc(Cl)ccc2N1CC1CC1 | inactive |
| COc1ccc2c(c1OC)C(=O)OC2C1c2cc3c(cc2CCN1C)OCO3 (centres undefined) | inactive |
| CC12NC(Cc3ccccc31)c1ccccc12 (centres undefined) | active |
| O=[N+]([O-])C(Br)(CO)CO | inactive |
| CCC(C)(S(=O)(=O)CC)S(=O)(=O)CC | inactive |
| CC(C)CCON=O | inactive |
| ClC(Cl)(Cl)Cl | inactive |

[ask] Short answer needed: outcome of this test for C[N+]1(C)C2CCC1CC(OC(=O)c1c[nH]c3ccccc13)C2 (centres undefined) ?
[reply] inactive

[ask] I would be grateful if you could indicate the recorded call for CCCC(C)C1(CC)C(=O)NC(=O)NC1=O (centres undefined) .
[reply] inactive

[ask] Could you kindly confirm the outcome this assay logged for S=C(S)N1CCNCC1 ?
[reply] inactive

[ask] // param item: O=c1[nH]c(=O)n(Cl)c(=O)n1Cl ; yields the recorded call
[reply] inactive

[ask] Test call for this compound, please: CNC1(c2ccccc2Cl)CCCCC1=O (centres undefined)
[reply] inactive

[ask] Each compound tested received a call. Report the one for NCC(O)c1cccc(O)c1 (centres undefined) .
[reply] inactive
